System: SK-MEL-28 melanoma
TEST_DESCRIPTION: NCI tumour cell line growth inhibition, 48 h

MOLECULE | TGI
COc1cc[nH]c1/C=C1\C(=O)Nc2ccccc21 | > 25 µM
O=C(O)CP(=S)(S)c1ccccc1 (stereo not given) | > 100 µM
O=C1CSC(c2ccccc2)N1c1nc2cc3sc(N4C(=O)CSC4c4ccccc4)nc3cc2s1 (stereo not given) | > 100 µM
O=C1c2ccccc2C(=O)C2NC(CCCCCSSCCCCCC3=NC4C(=O)c5ccccc5C(=O)C4N3)=NC12 (stereo not given) | > 100 µM
C=CCN1C(=O)/C(=C/c2ccc(Cl)cc2)N=C1SC/C=C/C | > 100 µM
CC(=O)C(C(=O)c1ccc(C)cc1)[C@@H]1OC(C)(C)O[C@@H]1[C@H]1COC(C)(C)O1 (stereo not given in full) | > 77.7 µM
Cc1ccc2c(c1)C(=O)C1(C2)Cc2c(C)cccc2C1=O (stereo not given) | > 100 µM
CC(C)CCCC(C)[C@H]1CC[C@H]2n3c(nnc3-c3ccccc3)CCC[C@]12C (stereo not given in full) | 37.1 µM
CN/N=C(/CCN1CCCC1)CC(c1ccccc1)c1c(O)c2ccccc2oc1=O (stereo not given) | > 100 µM
N#Cc1nc(C2OC(COC(=O)c3ccccc3)C(OC(=O)c3ccccc3)C2OC(=O)c2ccccc2)oc1N (stereo not given) | > 100 µM

Data provenance is PubChem BioAssay (NCI).
